# measuredOn: T1, NagR-DBD (Bacillus subtilis, UniProt O34817 1-75)
# T1 sequence: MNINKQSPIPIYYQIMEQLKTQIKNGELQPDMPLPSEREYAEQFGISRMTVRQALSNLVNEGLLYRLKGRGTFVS
# protocolDescription: SPR; KD1 of two-step model, steady state; SPR: HBS-EP pH 7.4, 25 C, biotinylated DNA on SA chip; DNA for EMSA/SEC annealed in 20 mM Tris-HCl pH 7.5, 150 mM NaCl; crystal 4WWC: 0.1 M Bis-Tris pH 6.5, 25% PEG 3500, 292 K
# testParameters: protein: recombinant; tags: N-terminal His6 with thrombin site (pET15b); chain copies: 2; label: 5'-biotin on strand 1; blunt
measureName: Kd (nM)
Numbers only; they are read as nM.

Kd reading for 26mer palindromic dsDNA (dsDNA) DNA 1: GCTCAGGTGGTCTAGACCACTAGTCT DNA 2: AGACTAGTGGTCTAGACCACCTGAGC : 14.5

Sourced from paper PMC4333415
